# System: T98G (temozolomide resistant glioblastoma)
# assayInfo: Cell growth inhibition, MTT assay, T98G
# Type: cell-based
# testContext: Homo sapiens, mean ± SD, Table S1
pIC50: −log10 of the molar value.
attributeMeasured: pIC50

CSc1cc(-c2nnnn2-c2ccc3c(c2)c(C#N)cn3C)cc(Cl)n1 [Compound 22] yielded pIC50 of 6.44

COc1cc(-c2nnnn2-c2ccc3c(c2)c(C#N)cn3C)cc(Cl)n1 [Compound 21] yielded pIC50 of 6.16

COc1ccc(/C=C\c2cc(OC)c(OC)c(OC)c2)cc1O [CA-4, combretastatin A4, reference compound] yielded pIC50 of 7.77

[P] CSc1cc(-c2nnnn2-c2ccc3c(c2)c(C=NO)cn3C)cc(SC)n1 [Compound 19]
[Q] CSc1cc(-c2nnnn2-c2ccc3c(c2)c(C=O)cn3C)cc(SC)n1 [Compound 15]
Q) Looking only at measured pIC50, which entry is lower, P or Q ? Bench note: the answer is the label of the chosen record.
A) P
(P: 6.53, Q: 6.91)
